assay: melting temperature; melt of duplexes; conditions: sodium 0.0675 M; strand 1 µM
endpoint: Tm (°C)
One number for each entry, in °C.

// below: answered substances
CGACGTGCCGCATGTGCTG+CAGCACATGCCGCACGTCG ((((((((.((((((((((+)))))))))).))))))))	58.9
CGACGTGCATTATGTGCTG+CAGCACATAGCGCACGTCG ((((((((..(((((((((+)))))))))..))))))))	49.4

Kindly give each listed record's Tm.
1. CGACGTGCCCGATGTGCTG+CAGCACATTGCGCACGTCG ((((((((.(.((((((((+)))))))).).))))))))
2. CGACGTGCCTGATGTGCTG+CAGCACATCAGGCACGTCG (((((((((((((((((((+)))))))))))))))))))

1. 51.2
2. 65.9

---

Would you kindly list Tm for each of these substances?
test: melting temperature; melt of duplexes; conditions: sodium 0.0675 M; strand 1 µM
One number for each entry, in °C.

// below: answered substances
CGACGTGCAGGATGTGCTG+CAGCACATTCGGCACGTCG ((((((((.(.((((((((+)))))))).).))))))))	56.2
CGACGTGCAGGATGTGCTG+CAGCACATGCAGCACGTCG ((((((((.(.((((((((+)))))))).).))))))))	55
CGACGTGCGAAATGTGCTG+CAGCACATCAAGCACGTCG ((((((((...((((((((+))))))))...))))))))	52.3
CGACGTGCTGTATGTGCTG+CAGCACATAGTGCACGTCG ((((((((..(((((((((+)))))))))..))))))))	48
CGACGTGCCCGATGTGCTG+CAGCACATAATGCACGTCG ((((((((...((((((((+))))))))...))))))))	48.1
CGACGTGCTTTATGTGCTG+CAGCACATTTTGCACGTCG ((((((((...((((((((+))))))))...))))))))	49.5

Proceeding to the next substance to report its Tm.
The substance listed as CGACGTGCGCGATGTGCTG+CAGCACATGAAGCACGTCG ((((((((...((((((((+))))))))...)))))))) has a reported Tm of 54.4

---

assay: melting temperature; UV melt of duplexes; details: sodium 0.12 M; strand 2 µM
endpoint: Tm (°C)
One number for each entry, in °C.

// below: answered substances
ATGCAATGCTACATATTCGC+GCGAATATGTAGCATTGCAT ((((((((((((((((((((+))))))))))))))))))))	59.5
CTTAAGATATGAGAACTTCAACTAATGTGT+ACACATTAGTTGAAGTTCTCATATCTTAAG ((((((((((((((((((((((((((((((+))))))))))))))))))))))))))))))	61.3
TTATGTATTAAGTTATATAGTAGTAGTAGT+ACTACTACTACTATATAACTTAATACATAA ((((((((((((((((((((((((((((((+))))))))))))))))))))))))))))))	55

Kindly give each listed record's Tm.
1. CGGAATCCATGTTACTTCGGCTATC+GATAGCCGAAGTAACATGGATTCCG (((((((((((((((((((((((((+)))))))))))))))))))))))))
2. CAGTGGGCTCCTGGGCGTGCTGGTC+GACCAGCACGCCCAGGAGCCCACTG (((((((((((((((((((((((((+)))))))))))))))))))))))))
3. CAGCCTCGTTCGCACAGCCC+GGGCTGTGCGAACGAGGCTG ((((((((((((((((((((+))))))))))))))))))))
4. CCCTGCACTTTAACTGAATTGTTTA+TAAACAATTCAGTTAAAGTGCAGGG (((((((((((((((((((((((((+)))))))))))))))))))))))))
5. ACGCCCACAGGATTAGGCTGGCCCACATTG+CAATGTGGGCCAGCCTAATCCTGTGGGCGT ((((((((((((((((((((((((((((((+))))))))))))))))))))))))))))))

64.7
75.6
70.7
61.4
74.7

Kindly give each listed record's Tm.
1. TCCACACGGTAGTAAAATTAGGCTT+AAGCCTAATTTTACTACCGTGTGGA (((((((((((((((((((((((((+)))))))))))))))))))))))))
2. ATGGGTGGGAGCCTCGGTAGCAGCC+GGCTGCTACCGAGGCTCCCACCCAT (((((((((((((((((((((((((+)))))))))))))))))))))))))
3. CCATCATTGTGTCTACCTCA+TGAGGTAGACACAATGATGG ((((((((((((((((((((+))))))))))))))))))))
4. CTTCAACGGATCAGGTAGGACTGTGGTGGG+CCCACCACAGTCCTACCTGATCCGTTGAAG ((((((((((((((((((((((((((((((+))))))))))))))))))))))))))))))

63.1
74.5
59.5
71.7

---

assay: melting temperature; UV melt of duplexes; settings: sodium 0.22 M; strand 2 µM
endpoint: Tm (°C)
Give bare numbers, in °C.

// below: answered substances
AAAGGTGTCGCGGAGAGTCGTGCTG+CAGCACGACTCTCCGCGACACCTTT (((((((((((((((((((((((((+)))))))))))))))))))))))))	77.4
GTCATACGACTGAGTGCAACATTGTTCAAA+TTTGAACAATGTTGCACTCAGTCGTATGAC ((((((((((((((((((((((((((((((+))))))))))))))))))))))))))))))	70.8
CTTCAACGGATCAGGTAGGACTGTGGTGGG+CCCACCACAGTCCTACCTGATCCGTTGAAG ((((((((((((((((((((((((((((((+))))))))))))))))))))))))))))))	74.7
CAGTGAGACAGCAATGGTCG+CGACCATTGCTGTCTCACTG ((((((((((((((((((((+))))))))))))))))))))	67
ACGCCCACAGGATTAGGCTGGCCCACATTG+CAATGTGGGCCAGCCTAATCCTGTGGGCGT ((((((((((((((((((((((((((((((+))))))))))))))))))))))))))))))	78.5

Kindly give each listed record's Tm.
1. TAGTATATCGCAGCATCATACAGGC+GCCTGTATGATGCTGCGATATACTA (((((((((((((((((((((((((+)))))))))))))))))))))))))
2. ATGGGTGGGAGCCTCGGTAGCAGCC+GGCTGCTACCGAGGCTCCCACCCAT (((((((((((((((((((((((((+)))))))))))))))))))))))))
3. TATGTATATTTTGTAATCAG+CTGATTACAAAATATACATA ((((((((((((((((((((+))))))))))))))))))))
4. CCATCATTGTGTCTACCTCA+TGAGGTAGACACAATGATGG ((((((((((((((((((((+))))))))))))))))))))
5. GTTCACGTCCGAAAGCTCGAAAAAGGATAC+GTATCCTTTTTCGAGCTTTCGGACGTGAAC ((((((((((((((((((((((((((((((+))))))))))))))))))))))))))))))
6. AGCAGTCCGCCACACCCTGA+TCAGGGTGTGGCGGACTGCT ((((((((((((((((((((+))))))))))))))))))))

1. 69.1
2. 78.2
3. 52.6
4. 63.1
5. 72.1
6. 74

---

Would you kindly list Tm for each of these substances?
assay: melting temperature; melt of duplexes; settings: sodium 0.0675 M; strand 1 µM
Answers are plain numbers, in °C.

// below: answered substances
CGACGTGCGACATGTGCTG+CAGCACATTATGCACGTCG ((((((((...((((((((+))))))))...))))))))	50.1
CGACGTGCTATATGTGCTG+CAGCACATCCGGCACGTCG ((((((((...((((((((+))))))))...))))))))	49
CGACGTGCGTAATGTGCTG+CAGCACATGGCGCACGTCG (((((((((..((((((((+))))))))..)))))))))	57.2
CGACGTGCGTTATGTGCTG+CAGCACATTCGGCACGTCG ((((((((...((((((((+))))))))...))))))))	49.8
CGACGTGCCAGATGTGCTG+CAGCACATAATGCACGTCG ((((((((...((((((((+))))))))...))))))))	48.5

Kindly give each listed record's Tm.
1. CGACGTGCCTAATGTGCTG+CAGCACATGACGCACGTCG ((((((((.(.((((((((+)))))))).).))))))))
2. CGACGTGCGGAATGTGCTG+CAGCACATGGGGCACGTCG ((((((((...((((((((+))))))))...))))))))
3. CGACGTGCGGCATGTGCTG+CAGCACATATCGCACGTCG (((((((((..((((((((+))))))))..)))))))))
4. CGACGTGCGTGATGTGCTG+CAGCACATCAGGCACGTCG ((((((((.((((((((((+)))))))))).))))))))
5. CGACGTGCGATATGTGCTG+CAGCACATGATGCACGTCG ((((((((...((((((((+))))))))...))))))))
6. CGACGTGCAATATGTGCTG+CAGCACATACAGCACGTCG ((((((((..(((((((((+)))))))))..))))))))
7. CGACGTGCTTAATGTGCTG+CAGCACATTTAGCACGTCG (((((((((.(((((((((+))))))))).)))))))))
8. CGACGTGCCTGATGTGCTG+CAGCACATAAAGCACGTCG ((((((((.(.((((((((+)))))))).).))))))))

[46.4, 52.9, 54.7, 59.6, 53.8, 50.3, 55.5, 51.7]

Kindly give each listed record's Tm.
1. CGACGTGCGGTATGTGCTG+CAGCACATAATGCACGTCG ((((((((..(((((((((+)))))))))..))))))))
2. CGACGTGCACGATGTGCTG+CAGCACATCCCGCACGTCG ((((((((..(((((((((+)))))))))..))))))))

54.6
49.9
